Biological target: Cyclin E1 (Homo sapiens, UniProt P24864+Q96SW2)
Sequence (P24864 whole entry, one chain of several): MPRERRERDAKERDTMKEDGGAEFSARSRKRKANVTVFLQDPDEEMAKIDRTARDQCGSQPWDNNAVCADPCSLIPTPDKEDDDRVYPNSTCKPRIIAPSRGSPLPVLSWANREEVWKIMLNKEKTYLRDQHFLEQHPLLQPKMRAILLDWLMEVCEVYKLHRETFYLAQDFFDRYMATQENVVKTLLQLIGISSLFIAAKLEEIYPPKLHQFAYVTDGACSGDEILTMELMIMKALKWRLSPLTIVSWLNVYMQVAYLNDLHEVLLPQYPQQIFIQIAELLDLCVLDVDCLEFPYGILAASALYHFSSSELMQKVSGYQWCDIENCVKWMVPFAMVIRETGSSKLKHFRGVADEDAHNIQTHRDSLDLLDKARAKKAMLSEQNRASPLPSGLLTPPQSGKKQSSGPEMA
Assay: Cyclin E1 Cellular Degradation Assay (MSD)
Format: cell-based
Set-up: endogenous in cells; host or cells: OVCAR3
Settings: Cyclin E1 cellular degradation
observed.property: DC50 (nM)
Answers are plain numbers, in nM.

Examples with answers:
[
  {
    "compound": "COc1c(COC(=O)Nc2ccc(Oc3ccccc3Cl)cc2)ccc2c1C(=O)N(C1CCC(=O)NC1=O)C2 (stereo not shown)",
    "DC50 (nM)": 181
  },
  {
    "compound": "COc1c(COC(=O)Nc2ccc(Oc3cccc(Br)c3)cc2)ccc2c1C(=O)N(C1CCC(=O)NC1=O)C2 (stereo not shown)",
    "DC50 (nM)": 114
  },
  {
    "compound": "COc1cc(Oc2ccc(F)cc2)ccc1NC(=O)OCc1ccc2c(c1OC)C(=O)N(C1CCC(=O)NC1=O)C2 (stereo not shown)",
    "DC50 (nM)": 107
  }
]

Here is the next item to consider.
Asked: Which value of DC50 has been reported for COc1c(COC(=O)Nc2ccc(Oc3ccc(F)cc3)cc2)ccc2c1C(=O)N(C1CCC(=O)NC1=O)C2 (stereo not shown) in the records?
Given back: 94

---

Biological target: GSPT1 (Homo sapiens, UniProt P15170+Q96SW2)
Sequence (P15170 whole entry): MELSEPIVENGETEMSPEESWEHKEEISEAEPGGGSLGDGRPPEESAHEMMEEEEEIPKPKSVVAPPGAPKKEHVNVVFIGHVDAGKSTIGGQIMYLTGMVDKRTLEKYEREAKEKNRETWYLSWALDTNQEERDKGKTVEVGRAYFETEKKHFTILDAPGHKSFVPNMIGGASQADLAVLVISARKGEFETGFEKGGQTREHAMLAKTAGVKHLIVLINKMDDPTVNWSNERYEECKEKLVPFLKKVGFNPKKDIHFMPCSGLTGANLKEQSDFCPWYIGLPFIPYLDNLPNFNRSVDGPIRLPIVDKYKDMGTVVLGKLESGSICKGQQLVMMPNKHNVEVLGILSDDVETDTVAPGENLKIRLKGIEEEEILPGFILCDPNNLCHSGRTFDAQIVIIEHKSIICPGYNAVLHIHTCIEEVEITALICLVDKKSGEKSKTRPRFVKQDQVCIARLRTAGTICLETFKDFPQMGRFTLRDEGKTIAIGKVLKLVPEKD
Sequence (Q96SW2 whole entry): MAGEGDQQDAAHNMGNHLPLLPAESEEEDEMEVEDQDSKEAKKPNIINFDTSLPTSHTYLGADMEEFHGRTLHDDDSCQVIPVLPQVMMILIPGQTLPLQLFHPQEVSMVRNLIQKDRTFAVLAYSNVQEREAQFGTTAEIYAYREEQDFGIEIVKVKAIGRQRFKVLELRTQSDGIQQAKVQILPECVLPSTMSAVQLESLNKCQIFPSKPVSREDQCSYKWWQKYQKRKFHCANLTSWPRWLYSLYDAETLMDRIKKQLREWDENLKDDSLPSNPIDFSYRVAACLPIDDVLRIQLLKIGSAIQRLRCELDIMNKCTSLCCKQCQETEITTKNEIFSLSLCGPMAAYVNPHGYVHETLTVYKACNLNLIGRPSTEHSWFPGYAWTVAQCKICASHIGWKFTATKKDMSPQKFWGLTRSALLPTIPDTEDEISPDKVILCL
Sequence (Q16531 whole entry partner): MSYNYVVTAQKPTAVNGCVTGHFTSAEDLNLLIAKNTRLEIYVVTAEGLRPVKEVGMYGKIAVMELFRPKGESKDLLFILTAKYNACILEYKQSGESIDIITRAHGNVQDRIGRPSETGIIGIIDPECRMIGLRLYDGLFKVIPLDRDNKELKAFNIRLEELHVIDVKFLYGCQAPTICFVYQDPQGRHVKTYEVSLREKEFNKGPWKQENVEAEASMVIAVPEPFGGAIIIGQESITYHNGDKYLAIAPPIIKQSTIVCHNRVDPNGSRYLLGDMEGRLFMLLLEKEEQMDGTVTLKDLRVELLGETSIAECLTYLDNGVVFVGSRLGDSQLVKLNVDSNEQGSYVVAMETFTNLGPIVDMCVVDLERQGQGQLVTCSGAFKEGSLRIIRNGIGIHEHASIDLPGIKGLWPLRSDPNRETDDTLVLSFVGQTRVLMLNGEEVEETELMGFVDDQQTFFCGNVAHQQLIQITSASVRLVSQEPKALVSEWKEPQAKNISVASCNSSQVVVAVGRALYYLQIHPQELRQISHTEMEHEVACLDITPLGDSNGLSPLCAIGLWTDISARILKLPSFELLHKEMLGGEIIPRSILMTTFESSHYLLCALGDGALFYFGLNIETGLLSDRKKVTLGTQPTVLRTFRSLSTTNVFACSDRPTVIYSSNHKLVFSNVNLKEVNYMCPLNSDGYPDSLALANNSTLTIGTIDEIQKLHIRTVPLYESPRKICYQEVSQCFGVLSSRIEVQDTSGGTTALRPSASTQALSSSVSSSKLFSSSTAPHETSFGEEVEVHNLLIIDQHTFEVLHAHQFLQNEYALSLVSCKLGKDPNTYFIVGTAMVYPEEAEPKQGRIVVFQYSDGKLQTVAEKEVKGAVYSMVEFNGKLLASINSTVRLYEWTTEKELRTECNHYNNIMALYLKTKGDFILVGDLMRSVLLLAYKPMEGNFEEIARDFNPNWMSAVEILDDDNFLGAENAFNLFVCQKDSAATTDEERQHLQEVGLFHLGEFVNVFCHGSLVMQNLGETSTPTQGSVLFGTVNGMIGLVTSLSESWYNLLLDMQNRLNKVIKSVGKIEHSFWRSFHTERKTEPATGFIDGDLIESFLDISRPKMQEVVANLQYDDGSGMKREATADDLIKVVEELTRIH
Assay: GSPT1 Cellular Degradation Assay (DF15-GSPT1-ePL)
Assay type: cell-based
Design: expressed in transfected cells
Settings: DF15-GSPT1-ePL cells, 20 hours
So I've got a bunch of molecules here, and I need their Dmax values.
One number for each entry, in %.

Examples with answers:
[
  {
    "molecule": "CC(C)Oc1c(COC(=O)Nc2ccc(Oc3ccc(F)c(F)c3)cc2)ccc2c1C(=O)N(C1CCC(=O)NC1=O)C2 (stereo not shown)",
    "units.label": "%",
    "Dmax": 19
  },
  {
    "molecule": "COc1c(COC(=O)Nc2ccc(Oc3cccc(C)c3)cc2)ccc2c1C(=O)N(C1CCC(=O)NC1=O)C2 (stereo not shown)",
    "units.label": "%",
    "Dmax": 33
  },
  {
    "molecule": "COc1c(COC(=O)Nc2ccc(Oc3ccc(F)cc3F)cc2)ccc2c1C(=O)N(C1CCC(=O)NC1=O)C2 (stereo not shown)",
    "units.label": "%",
    "Dmax": 33
  }
]

Asked: Write down the reported Dmax of COc1c(COC(=O)Nc2ccc(Oc3cc(F)c(F)cc3F)cc2F)ccc2c1C(=O)N(C1CCC(=O)NC1=O)C2 (stereo not shown) , test system: GSPT1 (Homo sapiens, UniProt P15170+Q96SW2).
Given back: 33

---

Molecular target: Cyclin E1 (Homo sapiens, UniProt P24864+Q96SW2)
Assay: Cyclin E1 Cellular Degradation Assay (MSD)
Assay type: cell-based
Design: endogenous in cells; host or cells: OVCAR3
Details: selectivity for degradation of Cyclin E1 over GSPT1
observed.property: Ratio of GSPT1 DC50/Cyclin E1 DC50

Examples with answers:
[
  {
    "compound": "COc1c(COC(=O)Nc2ccc(Oc3cc(F)c(F)cc3C)cc2F)ccc2c1C(=O)N(C1CCC(=O)NC1=O)C2 (stereo not shown)",
    "target.system": "Cyclin E1 (Homo sapiens, UniProt P24864+Q96SW2)",
    "Ratio of GSPT1 DC50/Cyclin E1 DC50": ">71"
  },
  {
    "compound": "O=C1CCC(N2Cc3ccc(COC(=O)Nc4ccc(Oc5ccc(F)cc5)cc4)c(OC4CCOCC4)c3C2=O)C(=O)N1 (stereo not shown)",
    "target.system": "Cyclin E1 (Homo sapiens, UniProt P24864+Q96SW2)",
    "Ratio of GSPT1 DC50/Cyclin E1 DC50": ">569"
  },
  {
    "compound": "COc1c(COC(=O)Nc2ccc(Cc3cc(F)c(F)c(F)c3)cc2)ccc2c1C(=O)N(C1CCC(=O)NC1=O)C2 (stereo not shown)",
    "target.system": "Cyclin E1 (Homo sapiens, UniProt P24864+Q96SW2)",
    "Ratio of GSPT1 DC50/Cyclin E1 DC50": ">96"
  }
]

Asked: Which value of Ratio of GSPT1 DC50/Cyclin E1 DC50 has been reported for COc1c(COC(=O)Nc2ccc(Oc3ccc(F)cc3Cl)cc2F)ccc2c1C(=O)N(C1CCC(=O)NC1=O)C2 (stereo not shown) in the records?
Given back: >268

---

Target: GSPT1 (Homo sapiens, UniProt P15170+Q96SW2)
Assay: GSPT1 Cellular Degradation Assay (DF15-GSPT1-ePL)
Format: cell-based
Parameters: expressed in transfected cells
Settings: DF15-GSPT1-ePL cells, 20 hours
Hi all, reminder that labels come from Dmax, split as Low (below 10%), Medium (10% to below 30%), High (30% or more)

[
  {
    "molecule": "CN(C)C(=O)COc1c(COC(=O)Nc2ccc(Oc3ccc(F)c(F)c3)cc2)ccc2c1C(=O)N(C1CCC(=O)NC1=O)C2 (stereo not drawn)",
    "classification": "Medium"
  },
  {
    "molecule": "COc1cc(Oc2ccc(F)cc2C)ccc1NC(=O)OCc1ccc2c(c1OC)C(=O)N(C1CCC(=O)NC1=O)C2 (stereo not drawn)",
    "classification": "Medium"
  },
  {
    "molecule": "COc1c(COC(=O)Nc2ccc(Oc3ccccc3C(F)F)cc2)ccc2c1C(=O)N(C1CCC(=O)NC1=O)C2 (stereo not drawn)",
    "classification": "High"
  },
  {
    "molecule": "COc1c(COC(=O)Nc2ccc(Nc3cccc(F)c3)cc2)ccc2c1C(=O)N(C1CCC(=O)NC1=O)C2 (stereo not drawn)",
    "classification": "High"
  },
  {
    "molecule": "O=C1CCC(N2Cc3ccc(COC(=O)Nc4ccc(Oc5ccccc5)cc4)c(Oc4cccnc4)c3C2=O)C(=O)N1 (stereo not drawn)",
    "classification": "Low"
  },
  {
    "molecule": "COc1c(COC(=O)Nc2ccc(Oc3ccc(F)c(F)c3)cc2Cl)ccc2c1C(=O)N(C1CCC(=O)NC1=O)C2 (stereo not drawn)",
    "classification": "High"
  },
  {
    "molecule": "COCCOc1c(COC(=O)Nc2ccc(Oc3ccc(F)c(F)c3)cc2F)ccc2c1C(=O)N(C1CCC(=O)NC1=O)C2 (stereo not drawn)",
    "classification": "Low"
  },
  {
    "molecule": "O=C1CCC(N2Cc3ccc(COC(=O)Nc4ccc(Oc5ccc(F)cc5)cc4F)c(O[C@@H]4CCCOC4)c3C2=O)C(=O)N1 (stereo partly drawn)",
    "classification": "Low"
  }
]

Asked: Sort COc1cc(F)c(F)cc1Oc1ccc(NC(=O)OCc2ccc3c(c2OC)C(=O)N(C2CCC(=O)NC2=O)C3)c(C)c1 (stereo not drawn) into one of the categories.
Given back: Low

Asked: Sort COc1c(COC(=O)Nc2ccc(Oc3ccc(F)cc3Cl)cc2C)ccc2c1C(=O)N(C1CCC(=O)NC1=O)C2 (stereo not drawn) into one of the categories.
Given back: Medium

---

System: Phospho-Rb (Ser807/811)
Assay: Phospho-Retinoblastoma (pRB) Cellular Assay
Type: cell-based
Conditions: Homo sapiens, OVCAR-3; NIH OVCAR3 cells, 24 hours; concentration giving 50% response
So I've got a bunch of compounds here, and I need their IC50 values.
In your response, the unit should come after the numeric value.

Examples with answers:
[
  {
    "compound": "O=C1CCC(N2Cc3ccc(COC(=O)Nc4ccc(Oc5cc(F)cc(F)c5)cc4F)c(OC4CCOCC4)c3C2=O)C(=O)N1 (stereo not shown)",
    "IC50": "16 nM"
  },
  {
    "compound": "O=C1CCC(N2Cc3ccc(COC(=O)Nc4ccc(Oc5ccc(F)cc5Cl)cc4)c(Oc4ccccc4)c3C2=O)C(=O)N1 (stereo not shown)",
    "IC50": "223 nM"
  },
  {
    "compound": "O=C1CCC(N2Cc3ccc(COC(=O)Nc4ccc(Oc5ccc(F)cc5)cc4F)c(O[C@@H]4CCCOC4)c3C2=O)C(=O)N1 (stereo partly shown)",
    "IC50": "43 nM"
  },
  {
    "compound": "COc1c(COC(=O)Nc2ccc(Oc3ccc(F)cc3C)cc2C)ccc2c1C(=O)N(C1CCC(=O)NC1=O)C2 (stereo not shown)",
    "IC50": "104 nM"
  }
]

List the reported IC50 of each compound below.
1. O=C1CCC(N2Cc3ccc(COC(=O)Nc4ccc(Oc5ccc(F)c(F)c5)cc4)c(OC4COC4)c3C2=O)C(=O)N1 (stereo not shown)
2. COc1c(COC(=O)Nc2ccc(Oc3cccc4ccccc34)cc2)ccc2c1C(=O)N(C1CCC(=O)NC1=O)C2 (stereo not shown)
3. COc1c(COC(=O)Nc2ccc(Cc3ccc(F)c(F)c3)cc2C)ccc2c1C(=O)N(C1CCC(=O)NC1=O)C2 (stereo not shown)
4. COc1c(COC(=O)Nc2ccc(Oc3cc(F)c(F)cc3C)cc2C)ccc2c1C(=O)N(C1CCC(=O)NC1=O)C2 (stereo not shown)
5. COc1c(COC(=O)Nc2ccc(Oc3cccc(F)c3)cc2F)ccc2c1C(=O)N(C1CCC(=O)NC1=O)C2 (stereo not shown)
6. COc1c(COC(=O)Nc2ccc(Oc3cc(F)c(F)cc3C)cc2)ccc2c1C(=O)N(C1CCC(=O)NC1=O)C2 (stereo not shown)

Given back:
1: 187 nM; 2: 99 nM; 3: 85 nM; 4: 53 nM; 5: 130 nM; 6: 165 nM

Source listed as patent US20250084056A1.
